Reference for the values: patent US20260151517A1

- Assay Procedure: in vivo
- Test Context: athymic nude Foxn1^nu, mouse, 0.15 MBq, total radioactivity, Uptake Stomach
*1 amine or outer side, *2 acyl side, *3 side chain or, on linkers, in order; H or OH if unused. Where a SMILES comes first, the peptide text is derived from it. Bridges are numbered along the chain shown (N, C = ends). [ ]: non-standard residue; d: D form. The star is where a group is joined. NODAGA = O=C(O)CN1CCN(CC(=O)O)CCN(C(CCC(=O)*)C(=O)O)CC1; X1 = NC(=O)Nc1ccc(CC(N[*:1])C(=O)[*:2])cc1; Phe(4-Cl) = N[CH](Cc1ccc(Cl)cc1)C(=O)O
Test Readout: tissue uptake at 4 h (%ID/g)
Numeric answer only, unit %ID/g assumed.

Task item: For the compound shown here, CC(O)C1NC(=O)C(CCCCN)NC(=O)C(Cc2ccc(NC(N)=O)cc2)NC(=O)C(Cc2ccc(O)cc2)NC(=O)C(NC(=O)C(Cc2ccc(Cl)cc2)NC(=O)CCC(C(=O)O)N2CCN(CC(=O)O)CCN(CC(=O)O)CC2)CSSCC(C(=O)NC(Cc2ccc(O)cc2)C(N)=O)NC1=O (stereo not shown) [[^61Cu]Cu-NODAGA-LM3, metal not drawn] ({NODAGA}-[Phe(4-Cl)]CY[X1]KTCY-NH2; disulfide 2-7; configuration not given here) , give the reported tissue uptake at 4 h.
Reply: 1.31

###

- Assay Procedure: Biodistribution studies
- Assay type: in vivo, mice
- Test Context: athymic nude Foxn1^nu, mouse, in vivo, iv, 1 MBq, total radioactivity, Uptake [% IA/g] Stomach
- Description: The dose of the administered radiopharmaceutical was 1 MBq ([…]) diluted to 100 μL with saline solution. The mice were euthanized at 4 hours post-injection, and the organs of interest were collected, rinsed, blotted, weighed, and analyzed in a gamma counter. The results were expressed as the percentage of injected activity per gram of tissue (% IA/g) and reported as mean±standard deviation in Table 32.
*1 amine or outer side, *2 acyl side, *3 side chain or, on linkers, in order; H or OH if unused. Where a SMILES comes first, the peptide text is derived from it. Bridges are numbered along the chain shown (N, C = ends). [ ]: non-standard residue; d: D form. The star is where a group is joined. NODAGA = O=C(O)CN1CCN(CC(=O)O)CCN(C(CCC(=O)*)C(=O)O)CC1; X1 = NC(=O)Nc1ccc(CC(N[*:1])C(=O)[*:2])cc1; Phe(4-Cl) = N[CH](Cc1ccc(Cl)cc1)C(=O)O
Test Readout: tissue uptake at 4 h (%ID/g)
I only need the number, in %ID/g, no unit after it.

Task item: tissue uptake at 4 h for CC(O)C1NC(=O)C(CCCCN)NC(=O)C(Cc2ccc(NC(N)=O)cc2)NC(=O)C(Cc2ccc(O)cc2)NC(=O)C(NC(=O)C(Cc2ccc(Cl)cc2)NC(=O)CCC(C(=O)O)N2CCN(CC(=O)O)CCN(CC(=O)O)CC2)CSSCC(C(=O)NC(Cc2ccc(O)cc2)C(N)=O)NC1=O (stereo not shown) [[^61Cu]Cu-NODAGA-LM3, metal not drawn] ({NODAGA}-[Phe(4-Cl)]CY[X1]KTCY-NH2; disulfide 2-7; configuration not given here) ?
Reply: 0.79

###

- Assay Procedure: in vivo
- Test Context: athymic nude Foxn1^nu, mouse, total radioactivity, Uptake Muscle
*1 amine or outer side, *2 acyl side, *3 side chain or, on linkers, in order; H or OH if unused. Where a SMILES comes first, the peptide text is derived from it. Bridges are numbered along the chain shown (N, C = ends). [ ]: non-standard residue; d: D form. The star is where a group is joined. NODAGA = O=C(O)CN1CCN(CC(=O)O)CCN(C(CCC(=O)*)C(=O)O)CC1; X1 = NC(=O)Nc1ccc(CC(N[*:1])C(=O)[*:2])cc1; Phe(4-Cl) = N[CH](Cc1ccc(Cl)cc1)C(=O)O
Test Readout: tissue uptake at 4 h (%ID/g)
Respond with the bare value in %ID/g.

Task item: tissue uptake at 4 h for CC(O)C1NC(=O)C(CCCCN)NC(=O)C(Cc2ccc(NC(N)=O)cc2)NC(=O)C(Cc2ccc(O)cc2)NC(=O)C(NC(=O)C(Cc2ccc(Cl)cc2)NC(=O)CCC(C(=O)O)N2CCN(CC(=O)O)CCN(CC(=O)O)CC2)CSSCC(C(=O)NC(Cc2ccc(O)cc2)C(N)=O)NC1=O (stereo not shown) [[^61Cu]Cu-NODAGA-LM3, metal not drawn] ({NODAGA}-[Phe(4-Cl)]CY[X1]KTCY-NH2; disulfide 2-7; configuration not given here) ?
Reply: 0.03

###

- Assay Procedure: Specificity (blocking) study with excess DOTA-LM3
- Test Context: athymic nude Foxn1^nu, mouse, stomach, 0.15 MBq, total radioactivity, Uptake Stomach, 4 hours post-injection, non-blocking
Where a SMILES comes first, the peptide text is derived from it. Bridges are numbered along the chain shown (N, C = ends). [ ]: non-standard residue; d: D form. The star is where a group is joined. X2 = O=C(O)CN1CCN(CC(=O)O)CCN([C@H](CCC(=O)*)C(=O)O)CC1; dPhe(4-NHCONH2) = NC(=O)Nc1ccc(C[C@@H](N)C(=O)O)cc1; Phe(4-Cl) = N[C@@H](Cc1ccc(Cl)cc1)C(=O)O
Test Readout: tissue uptake at 4 h (%ID/g)
Respond with the bare value in %ID/g.

Task item: Value lookup for tissue uptake at 4 h; key = C[C@@H](O)[C@@H]1NC(=O)[C@H](CCCCN)NC(=O)[C@@H](Cc2ccc(NC(N)=O)cc2)NC(=O)[C@H](Cc2ccc(O)cc2)NC(=O)[C@H](NC(=O)[C@H](Cc2ccc(Cl)cc2)NC(=O)CC[C@H](C(=O)O)N2CCN(CC(=O)O)CCN(CC(=O)O)CC2)CSSC[C@@H](C(=O)N[C@H](Cc2ccc(O)cc2)C(N)=O)NC1=O [[^64Cu]Cu-NODAGA-LM3, metal not drawn] (X2-[Phe(4-Cl)][dC]Y[dPhe(4-NHCONH2)]KTC[dY]-NH2; disulfide 2-7)
Reply: 1.31

###

- Assay Procedure: Specificity (blocking) study with excess DOTA-LM3
- Test Context: athymic nude Foxn1^nu, mouse, pancreas, 0.15 MBq, total radioactivity, Uptake Pancreas, 4 hours post-injection, non-blocking
Where a SMILES comes first, the peptide text is derived from it. Bridges are numbered along the chain shown (N, C = ends). [ ]: non-standard residue; d: D form. The star is where a group is joined. X2 = O=C(O)CN1CCN(CC(=O)O)CCN([C@H](CCC(=O)*)C(=O)O)CC1; dPhe(4-NHCONH2) = NC(=O)Nc1ccc(C[C@@H](N)C(=O)O)cc1; Phe(4-Cl) = N[C@@H](Cc1ccc(Cl)cc1)C(=O)O
Test Readout: tissue uptake at 4 h (%ID/g)
Report the value in %ID/g with no unit label.

Task item: So what's the measured tissue uptake at 4 h for this one? C[C@@H](O)[C@@H]1NC(=O)[C@H](CCCCN)NC(=O)[C@@H](Cc2ccc(NC(N)=O)cc2)NC(=O)[C@H](Cc2ccc(O)cc2)NC(=O)[C@H](NC(=O)[C@H](Cc2ccc(Cl)cc2)NC(=O)CC[C@H](C(=O)O)N2CCN(CC(=O)O)CCN(CC(=O)O)CC2)CSSC[C@@H](C(=O)N[C@H](Cc2ccc(O)cc2)C(N)=O)NC1=O [[^64Cu]Cu-NODAGA-LM3, metal not drawn] (X2-[Phe(4-Cl)][dC]Y[dPhe(4-NHCONH2)]KTC[dY]-NH2; disulfide 2-7)
Reply: 0.55

###

- Assay Procedure: Biodistribution studies
- Type: in vivo, mice
- Test Context: athymic nude Foxn1^nu, mouse, in vivo, iv, 1 MBq, total radioactivity, Tumor-to-organ uptake ratio Tumor/Pituitary
*1 amine or outer side, *2 acyl side, *3 side chain or, on linkers, in order; H or OH if unused. Where a SMILES comes first, the peptide text is derived from it. Bridges are numbered along the chain shown (N, C = ends). [ ]: non-standard residue; d: D form. The star is where a group is joined. NODAGA = O=C(O)CN1CCN(CC(=O)O)CCN(C(CCC(=O)*)C(=O)O)CC1; X1 = NC(=O)Nc1ccc(CC(N[*:1])C(=O)[*:2])cc1; Phe(4-Cl) = N[CH](Cc1ccc(Cl)cc1)C(=O)O
Test Readout: tissue to tissue ratio at 4 h
Give the figure by itself; no unit, no explanation.

Task item: Please give the measured tissue to tissue ratio at 4 h for this molecule: CC(O)C1NC(=O)C(CCCCN)NC(=O)C(Cc2ccc(NC(N)=O)cc2)NC(=O)C(Cc2ccc(O)cc2)NC(=O)C(NC(=O)C(Cc2ccc(Cl)cc2)NC(=O)CCC(C(=O)O)N2CCN(CC(=O)O)CCN(CC(=O)O)CC2)CSSCC(C(=O)NC(Cc2ccc(O)cc2)C(N)=O)NC1=O (stereo not shown) [[^61Cu]Cu-NODAGA-LM3, metal not drawn] ({NODAGA}-[Phe(4-Cl)]CY[X1]KTCY-NH2; disulfide 2-7; configuration not given here)
Reply: 5.3
